system: HT29; test: cells; format: cell-based; details: Homo sapiens, HT-29; HT29, 48 hours exposure, SRB; concentration that produces 50% growth inhibition; read-out: GI50
Returns: string. Value is criterion met if measured GI50 is below 0.5 nM, and criterion not met if it is greater than or equal to it.

Asked: Decide: GI50 of COC1=CC[C@@H]([C@@H](C)/C=C(C)/C=C\C=C/C(=O)N[C@@H](Cc2ccccc2)C(=O)N/C=C\C[C@@H](O)C/C=C(\C)Cl)OC1=O [Compound 30d] strictly below 0.5 nM?
Given back: criterion met

Asked: Answer whether the compound COC1=CC[C@@H]([C@@H](C)/C=C(C)/C=C\C=C\C(=O)N[C@H](C(=O)N/C=C\C[C@@H](O)C/C=C(\C)Cl)C(C)(C)C)OC1=O [Compound 30e] has GI50 strictly less than 0.5 nM
Given back: criterion not met

Asked: Identify whether the compound COC1=CC[C@@H]([C@@H](C)/C=C(C)/C=C\C=C/C(=O)N[C@H](C(=O)N/C=C\C[C@H](O)C/C=C(\C)Cl)C(C)(C)C)OC1=O [(21S)-30a] records GI50 below 0.5 nM.
Given back: criterion not met

Asked: Quick check: does COC1=CC[C@@H]([C@@H](C)/C=C(C)/C=C\C=C/C(=O)N[C@H](C(=O)N/C=C\C[C@@H](O)C/C=C(\C)Cl)C(C)(C)C)OC1=O [Compound 30a] have GI50 under 0.5 nM?
Given back: criterion not met

Asked: Does the reported GI50 of COC1=CC[C@@H]([C@@H](C)/C=C(C)/C=C\C=C/C(=O)N[C@H](C(=O)N/C=C\C[C@@H](O)C/C=C(\C)Cl)C(C)C)OC1=O [Compound 30c] stay below 0.5 nM?
Given back: criterion met

Asked: Hello, I'm reviewing records and need to know if GI50 of COC1=CC[C@@H]([C@@H](C)/C=C(C)/C=C\C=C/C(=O)N[C@@H](Cc2ccccc2)C(=O)N/C=C\C[C@H](C/C=C(\C)Cl)OC(N)=O)OC1=O is below 0.5 nM. Could you check?
Given back: criterion met

---

Field: IC (TGI). Provide a value for each of the compounds that follow.
Test system: A549
Experiment: cells
Assay type: cell-based
Settings: Homo sapiens; A549, 48 hours exposure, SRB; total growth inhibition (cytostatic effect); read-out: TGI
Excerpt: The aim of this assay is to evaluate the in vitro cytostatic (ability to delay or arrest tumor cell growth) or cytotoxic (ability to kill tumor cells) activity of the samples being tested. Evaluation of Cytotoxic Activity Using the SBR Colorimetric Assay A colorimetric type of assay, using sulforhodamine B (SRB) reaction has been adapted for a quantitative measurement of cell growth and viability (following the technique described by Skehan P et al. J. Natl. Cancer Inst. 1990, 82, 1107-1112). […]
# unit: nM | format: bare number

Asked: Given the entry C/C(Cl)=C\C[C@H](O)C/C=C\NC(=O)[C@@H](NC(=O)\C=C/C=C\C(C)=C\[C@H](C)[C@@H]1CC=CC(=O)O1)C(C)(C)C [Compound 30f] , report its measured IC (TGI).
Given back: 657

Asked: IC (TGI) for COC1=CC[C@@H]([C@@H](C)/C=C(C)/C=C\C=C/C(=O)N[C@H](C(=O)N/C=C\C[C@H](O)C/C=C(\C)Cl)C(C)(C)C)OC1=O [(21S)-30a] ?
Given back: 195

Asked: Quick one: IC (TGI) of COC1=CC[C@@H]([C@@H](C)/C=C(C)/C=C\C=C/C(=O)N[C@H](C(=O)N/C=C\C[C@@H](C/C=C(\C)Cl)OC(N)=O)C(C)C)OC1=O [(21S)-5] ?
Given back: 28.7

Asked: Form field: reported IC (TGI) of COC1=CC[C@@H]([C@@H](C)/C=C(C)/C=C\C=C/C(=O)N[C@H](C(=O)N/C=C\C[C@H](C/C=C(\C)Cl)O[Si](C)(C)C(C)(C)C)C(C)(C)C)OC1=O [Compound 29a]
Given back: 3400

Asked: Fill blank: measured IC (TGI) of the compound COC1=CC[C@@H]([C@@H](C)/C=C(C)/C=C\C=C/C(=O)N[C@H](C(=O)N/C=C\C[C@H](C/C=C(\C)Cl)OC(N)=O)C(C)C)OC1=O is ____.
Given back: 0.321

Asked: Which IC (TGI) is reported for this compound? COC1=CC[C@@H]([C@@H](C)/C=C(C)/C=C\C=C\C(=O)N[C@H](C(=O)N/C=C\C[C@H](C/C=C(\C)Cl)O[Si](C)(C)C(C)(C)C)C(C)(C)C)OC1=O [Compound 29e]
Given back: 1770

Asked: Query (compound): COC1=CC[C@@H]([C@@H](C)/C=C(C)/C=C\C=C/C(=O)N[C@@H](Cc2ccccc2)C(=O)N/C=C\C[C@H](C/C=C(\C)Cl)OC(N)=O)OC1=O ; field requested: IC (TGI)
Given back: 0.219

Asked: For the compound shown here, COC1=CC[C@@H]([C@@H](C)/C=C(C)/C=C\C=C/C(=O)N[C@@H](Cc2ccccc2)C(=O)N/C=C\C[C@@H](O)C/C=C(\C)Cl)OC1=O [Compound 30d] , give the reported IC (TGI).
Given back: 1.06

Asked: Name the reported IC (TGI) value associated with the compound COC1=CC[C@@H]([C@@H](C)/C=C(C)/C=C\C=C\C(=O)N[C@H](C(=O)N/C=C\C[C@@H](O)C/C=C(\C)Cl)C(C)(C)C)OC1=O [Compound 30e]
Given back: 302

Asked: Need IC (TGI), item COC1=CC[C@@H]([C@@H](C)/C=C(C)/C=C\C=C/C(=O)N[C@H](C(=O)N/C=C\C[C@@H](O)C/C=C(\C)Cl)C(C)(C)C)OC1=O [Compound 30a]
Given back: 137

Asked: Given the entry COC1=CC[C@@H]([C@@H](C)/C=C(C)/C=C/C=C/C(=O)N[C@H](C(=O)N/C=C\C[C@H](C/C=C(\C)Cl)O[Si](C)(C)C(C)(C)C)C(C)(C)C)OC1=O , report its measured IC (TGI).
Given back: 6640

Asked: Query: IC (TGI); subject: COC1=CC[C@@H]([C@@H](C)/C=C(C)/C=C\C=C/C(=O)N[C@@H](C(N)=O)C(C)(C)C)OC1=O [(15R)-7]
Given back: 3460

---

system: HT29; assay: cells; assay type: cell-based; conditions: Homo sapiens, HT-29; HT29, 48 hours exposure, SRB; total growth inhibition (cytostatic effect); read-out: TGI
ENDPOINT LABEL: IC (TGI) (nM)
Write down the numeric answer in nM and omit the unit.

Asked: IC (TGI) lookup needed for COC1=CC[C@@H]([C@@H](C)/C=C(C)/C=C/C=C/C(=O)N[C@H](C(=O)N/C=C\C[C@H](C/C=C(\C)Cl)O[Si](C)(C)C(C)(C)C)C(C)(C)C)OC1=O , thanks.
Given back: 2950

Asked: Recorded IC (TGI) for COC1=CC[C@@H]([C@@H](C)/C=C(C)/C=C\C=C/C(=O)N[C@@H](Cc2ccccc2)C(=O)N/C=C\C[C@H](C/C=C(\C)Cl)OC(N)=O)OC1=O , please?
Given back: 0.102

Asked: Bench note: what IC (TGI) did COC1=CC[C@@H]([C@@H](C)/C=C(C)/C=C\C=C/C(=O)N[C@H](C(=O)N/C=C\C[C@@H](C/C=C(\C)Cl)OC(N)=O)C(C)C)OC1=O [(21S)-5] show?
Given back: 2.87

---

tested on: HT29; test: cells; type: cell-based; conditions: Homo sapiens, HT-29, 48 h, read-out: TGI
Give measured IC (TGI) for each item. Keep answers brief.
Give the value, in units of nM, as a plain number.

Asked: Which IC (TGI) is reported for this molecule? COC1=CC[C@@H]([C@@H](C)/C=C(C)/C=C\C=C/C(=O)N[C@H](C(=O)N/C=C\C[C@@H](C/C=C(\C)Cl)OC(N)=O)C(C)(C)C)OC1=O [Compound (21S)-1]
Given back: 1.63

Asked: Entry COC1=CC[C@@H]([C@@H](C)/C=C(C)/C=C/C=C/C(=O)N[C@H](C(=O)N/C=C\C[C@H](C/C=C(\C)Cl)OC(N)=O)C(C)(C)C)OC1=O : reported IC (TGI) = ?
Given back: 0.759

Asked: // lookup IC (TGI) for COC1=CC[C@@H]([C@@H](C)/C=C(C)/C=C\C=C\C(=O)N[C@H](C(=O)N/C=C\C[C@H](C/C=C(\C)Cl)OC(N)=O)C(C)(C)C)OC1=O
Given back: 3.13

Asked: Dear colleague, I am looking for the recorded IC (TGI) of the following molecule: COC1=CC[C@@H]([C@@H](C)/C=C(C)/C=C\C=C/C(=O)N[C@H](C(=O)N/C=C\C[C@H](C/C=C(\C)Cl)OC(N)=O)C(C)(C)C)OC1=O
Given back: 0.61

Asked: Fill blank: measured IC (TGI) of the molecule COC1=CCC(C(C)/C=C(C)/C=C/C=C\C(=O)NC(C(=O)N/C=C\CC(C/C=C(\C)Cl)OC(N)=O)C(C)(C)C)OC1=O (centres unmarked) is ____.
Given back: 10.9
